System: UO-31
Measurement notes: NCI tumour cell line growth inhibition, 48 h
The source made the active and inactive calls. Rule as the data show it: active = GI50 up to about 1.1 µM and inactive = higher.
Attribute measured: GI50

# Molecule, GI50
records = [
    ("CC(C)CC(=O)CC(C)[C@]1(CCCOCc2ccccc2)C(=O)N2CCC3(C[C@@]24CCC[C@H]41)OCCO3 (stereo not given in full)", "> 10 µM (inactive)"),
    ("O=[N+]([O-])/C=C/c1c(Cl)cccc1Cl", "3.76 µM (inactive)"),
    ("O=C1C(NCCc2ccc(O)c([N+](=O)[O-])c2)=CC(=O)c2[nH]cnc21", "76.9 µM (inactive)"),
    ("Oc1nc2c(c(-c3cccc(Cl)c3)n1)COC/C2=C\\c1cccc(Cl)c1", "> 100 µM (inactive)"),
    ("CCOC(=O)Cc1csc2[n+]1C(=O)/C(=C/c1cccc(OC)c1O)S2", "28.7 µM (inactive)"),
    ("COC(=O)C1=Cc2cc3c(cc2[C@H](c2ccc4c(c2)OCO4)C1C(=O)OC)OCO3 (stereo not given in full)", "> 100 µM (inactive)"),
]

// batch mode: one GI50 value per listed entry
1. COc1cc(C[C@@H](C)N)cc(OC)c1
2. CCOC(=O)NC1CC2CCC1(OC)C=C2C (stereo not given)
3. c1cc2c(c(NC3=NCCO3)c1)CCC2
4. O=C(Nc1ccc(Cl)cc1)c1cc(S(=O)(=O)Nc2nc3cccnc3[nH]2)c(SSc2cc(Cl)c(C(=O)Nc3ccc(Cl)cc3)cc2S(=O)(=O)Nc2nc3cccnc3[nH]2)cc1Cl

1. > 100 µM (inactive)
2. > 100 µM (inactive)
3. > 100 µM (inactive)
4. > 100 µM (inactive)

----------
System: UACC-62
Measurement notes: NCI tumour cell line growth inhibition, 48 h
Calls of active or inactive are those of the source. Cut-off read from the data, not from the text of the source: active = GI50 up to about 1.1 µM and inactive = higher.
Give one outcome, nothing more. List: active, inactive

# Molecule, Qualitative label
measured = [
    ("COC(=O)Cc1nc2ccccc2o1", "inactive"),
    ("Cn1c(=O)c2c(ncn2CN2CCN(Cn3cnc4c3c(=O)n(C)c(=O)n4C)CC2)n(C)c1=O", "inactive"),
    ("CC1=CC(C)(C)N=C2SC(c3ccc(N)cc3)=NN12", "inactive"),
]

Attention now shifts to the item below.
Tell me the assay call for "N#C/C(N)=C(\C#N)NC(=O)C(=O)N/C(C#N)=C(\N)C#N" please. inactive

----------
Tested on: OVCAR-8
Measurement notes: NCI tumour cell line growth inhibition, 48 h
Calls of active or inactive are those of the source. No stated cut-off is given here; in the data, active = GI50 up to about 1.1 µM and inactive = higher.
Attribute measured: GI50

See these solved cases before continuing.
# Molecule, GI50
measured = [
    ("C=C1C/C(=C/C)C(=O)O[C@@H]2CCN3CC=C(COC(=O)[C@]1(C)O)[C@H]23", "> 100 µM (inactive)"),
    ("O=C(Nc1c(Cl)cc([N+](=O)[O-])cc1Cl)C(=O)C(C1OC(=O)c2ccccc21)[N+](=O)[O-] (stereo not given)", "> 100 µM (inactive)"),
    ("O=C1OC(=O)C2CCCC3CCCC1C32 (stereo not given)", "> 100 µM (inactive)"),
    ("CCOc1cc(NC(C)=O)ccc1C(=O)NN1C(=O)/C(=C/c2cc(OC)c(OC)c(OC)c2)N=C1c1ccccc1", "63.5 µM (inactive)"),
    ("CC(CC(=O)N1C2CC3CCC2(CS1(=O)=O)C3(C)C)[Si](C)(C)C (stereo not given)", "> 100 µM (inactive)"),
    ("CC1(O)CCC(C(C)(C)O)CC1 (stereo not given)", "> 100 µM (inactive)"),
]

// batch mode: one GI50 value per listed entry
1. N#Cc1nc(C2=C(Cl)c3ccccc3OC2)[nH]c1C#N
2. CC(=O)/C=C1/C(=O)C(CC(C)C)=C1CC(C)C
3. Cc1cc(S(=O)(=O)[N-]/C(=N/S(=O)(=O)c2ccc(Cl)cc2)[n+]2ccc(N(C)C)cc2)c(S)cc1Cl
4. C=CCN1C(=O)CC(=O)N(NC2=NNC3(C(=O)N2)c2ccccc2-c2ccccc23)C1=S

1: 30.4 µM (inactive); 2: > 100 µM (inactive); 3: > 100 µM (inactive); 4: 29.2 µM (inactive)

----------
Tested on: SF-539
Measurement notes: NCI tumour cell line growth inhibition, 48 h
Calls of active or inactive are those of the source. Rule as the data show it: active = GI50 up to about 1.1 µM and inactive = higher.
Give one outcome, nothing more. List: 1 (active), -1 (inactive)

# Compound, Measured on, Qualitative label
measured = [
    ("CCc1cc2c(c3c1CCCC3)CC1(Cc3ccc(C(=O)OC)cc3C1)C2 (stereo not given)", "SF-539", -1),
]

Tell me the assay call for "C[C@]12CC[C@H]3[C@@H](CC[C@]4(O)C[C@@H](O)CC[C@]34/C=N/O)[C@@]1(O)CC[C@@H]2C1=COC(=O)C1" please. 1

Lookup "O=C(O)c1ccccc1-c1ccccc1C(=O)Nc1ccc2c(c1)Cc1ccccc1-2" -1

Lookup "CCOC(=O)Cn1c2ccccc2c(=O)c2cc(C)c(C)c(C#N)c21" -1

Lookup O=C(OCC1CCCN2CCCCC12)c1cccnc1 (stereo not given) -1

Lookup "CCOC(=O)/C(=C\c1ccnc2ccccc12)P(=O)(OCC)OCC" -1

Lookup "CC(=O)c1cnc2oc3ccc(O)cc3c2c1-c1ccccc1" -1

Lookup "C[N+](C)(C)C.FC(F)(F)C1(C(F)(F)F)O[SiH-]2(OC(C(F)(F)F)(C(F)(F)F)c3ccccc32)c2ccccc21" -1

Lookup "CCc1nc2c([nH]1)C(=O)c1ccccc1C2=O" -1

Lookup "COC(=O)Cc1nc2ccccc2o1" -1

----------
Tested on: T47D
Measurement notes: NCI tumour cell line growth inhibition, 48 h
The source made the active and inactive calls. Cut-off read from the data, not from the text of the source: active = GI50 up to about 1.1 µM and inactive = higher.
Give one outcome, nothing more. List: active, inactive

Tell me the assay call for O=C1OC(=O)C2CCCC3CCCC1C32 (stereo not drawn) please. inactive

Lookup CC(=O)C1(C)CC(C#N)(C#N)C(C#N)=C1N (stereo not drawn) inactive

Lookup CCOC(=O)C1=CN(C(=O)c2ccccc2)CCC1Cc1ccccc1 (stereo not drawn) inactive

Lookup CN(C)CC1CCCCCC(Br)C1=O (stereo not drawn) inactive

Lookup "CCN1C(NCCO)=NS(=O)(=O)c2ccccc21" inactive

Lookup "CCOC(=O)c1cc2c([nH]1)c(O)cc1c2ccn1Cc1ccccc1" inactive

Lookup "Cc1cc(=O)[nH]c2c1C(=O)c1c(C)cc(=O)n(C)c1C2=O" active

Lookup CCOC(=O)C1=CC(C)(C(=O)OCC)Nc2c(nc(OC)[nH]c2=O)N1 (stereo not drawn) inactive

----------
Test system: SK-MEL-2
Measurement notes: NCI tumour cell line growth inhibition, 48 h
Activity calls are given as the source filed them. Rule as the data show it: active = GI50 up to about 1.1 µM and inactive = higher.
Answer each item with its documented GI50.

# Molecule, GI50
data = [
    ("O=C(Nc1c(Cl)cc([N+](=O)[O-])cc1Cl)C(=O)C(C1OC(=O)c2ccccc21)[N+](=O)[O-] (stereo not given)", "> 100 µM (inactive)"),
]

// batch mode: one GI50 value per listed entry
1. Oc1nc2cc(Cl)ccc2nc1/C(=N\Nc1ccccc1)C(O)c1ccc2c(c1)OCO2 (stereo not given)
2. O=C(c1ccccc1)c1c(C(F)(F)F)[n+]([O-])c2cc(Cl)c(Cl)cc2[n+]1[O-]
3. C[n+]1c2ccccc2c(NC(CCC(N)=O)C(=O)O)c2ccccc21 (stereo not given)

1. > 100 µM (inactive)
2. 3.32 µM (inactive)
3. > 100 µM (inactive)

----------
Test system: HCC 2998
Measurement notes: NCI tumour cell line growth inhibition, 48 h
Active and inactive are the calls of the source. Cut-off read from the data, not from the text of the source: active = GI50 up to about 1.1 µM and inactive = higher.
Give one outcome, nothing more. List: active, inactive

Some solved cases for reference:
# Molecule, Qualitative label
data = [
    ("COC(=O)c1s/c(=N\\C(=S)N(C)C)n(-c2ccc(Cl)cc2)c1C(=O)OC", "inactive"),
    ("C[N+](C)(C)C.FC(F)(F)C1(C(F)(F)F)O[SiH-]2(OC(C(F)(F)F)(C(F)(F)F)c3ccccc32)c2ccccc21", "inactive"),
    ("CN1Cc2c(nc(-c3ccccc3)c[n+]2[O-])N(C)C1", "inactive"),
    ("Cc1cn(CC2=NCC(O)CN2)c(=O)[nH]c1=O (centres undefined)", "inactive"),
    ("CN(C)/C=C/c1nnc([N+](=O)[O-])s1", "inactive"),
]

Tell me the assay call for "C=C1c2nc3ccccc3n2C=C(c2ccc(Cl)cc2)N1c1ccc(OCCN2CCCCC2)cc1" please. inactive

Lookup CC(C)Oc1c(O)c2c3c(oc(=O)n3C=CC2c2ccccc2)c1OC(C)C (centres undefined) inactive

----------
System: LOX IMVI
Measurement notes: NCI tumour cell line growth inhibition, 48 h
The source made the active and inactive calls. No stated cut-off is given here; in the data, active = GI50 up to about 1.1 µM and inactive = higher.
Give one outcome, nothing more. List: active, inactive

Some solved cases for reference:
# Compound, Qualitative label
records = [
    ("Cc1ccc(C(=O)CC2(O)C(=O)Nc3c(C)cc(Cl)cc32)cc1 (stereo unspecified)", "inactive"),
    ("Clc1ccc(-c2nnc3c4nnc(-c5ccc(Cl)cc5Cl)n4c4ccccc4n23)c(Cl)c1", "inactive"),
    ("CCCNC(=O)c1cc(OC)c(OC)cc1NC(=O)C12CC3CC(CC(C3)C1)C2", "inactive"),
]

Tell me the assay call for "CCOC(=O)c1cc2c(ccc3cc(C(=O)OCC)[nH]c32)[nH]1" please. inactive

Lookup CC(C)=CCCC(C)[C@H]1CC(O)C2(C)C3=CCC4C(C)(C)[C@@H](O)CC[C@]4(C)C3=CC[C@]12C (stereo partly specified) active

Lookup CC1(C)CCC2(C(=O)OC3OC(CO)C(O)C(O)C3O)CCC3(CO)C(=CCC4C5(C)CC(O)C(O)C(C)(C(=O)OC6OC(CO)C(O)C(O)C6O)C5CCC43C)C2C1 (stereo unspecified) inactive

Lookup "CS/C(c1ccccc1)=[N+](/C)[O-]" inactive

Lookup CN(C)c1cccc2c1C(=O)C=CC21c2ccc(N(C)C)c3c(N(C)C)ccc(c23)C(c2ccccc2)C1c1ccccc1 (stereo unspecified) inactive

Lookup OC(CCN1CCN(CCOC(c2ccccc2)c2ccccc2)CC1)c1ccccc1 (stereo unspecified) inactive

Lookup CC(=O)OCC1OC(n2cc([N+](=O)[O-])c(=O)[nH]c2=O)C(OC(C)=O)C(OC(C)=O)C1OC(C)=O (stereo unspecified) inactive

Lookup N#CC(C(=O)C(=O)Nc1ccc(Cl)cc1)c1ccccc1 (stereo unspecified) inactive

Lookup "CN(C)/C=C/c1nnc([N+](=O)[O-])s1" inactive

Lookup "CCOC(=O)c1c(N)n(-c2ccccc2)c(=S)n(-c2ccccc2)c1=O" inactive

Lookup CCOC(=O)NC1CC2CCC1(OC)C=C2C (stereo unspecified) inactive

Lookup c1ccc(C2OC3(CCC[C@H]4C[C@H]43)O[C@H]2c2ccccc2)cc1 (stereo partly specified) inactive

Lookup CNC(=O)OC(COC)CN1CCN(c2ccccc2C)CC1 (stereo unspecified) inactive
